Target: Src (Homo sapiens, UniProt P12931)
Sequence (P12931 2-536): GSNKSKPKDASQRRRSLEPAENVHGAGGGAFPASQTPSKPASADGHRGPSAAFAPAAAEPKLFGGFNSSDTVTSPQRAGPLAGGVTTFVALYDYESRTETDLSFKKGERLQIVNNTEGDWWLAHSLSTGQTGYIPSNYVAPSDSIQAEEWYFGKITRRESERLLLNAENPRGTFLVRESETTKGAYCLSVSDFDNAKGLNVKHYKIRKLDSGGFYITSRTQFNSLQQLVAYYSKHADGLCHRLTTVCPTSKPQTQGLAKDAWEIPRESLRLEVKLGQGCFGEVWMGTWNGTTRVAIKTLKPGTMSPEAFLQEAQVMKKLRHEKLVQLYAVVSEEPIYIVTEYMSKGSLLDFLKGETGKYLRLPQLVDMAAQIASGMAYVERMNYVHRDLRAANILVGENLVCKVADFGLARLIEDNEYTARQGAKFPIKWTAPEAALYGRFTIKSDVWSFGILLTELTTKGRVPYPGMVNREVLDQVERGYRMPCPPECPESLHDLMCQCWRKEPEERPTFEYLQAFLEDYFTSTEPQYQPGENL
Reported property: IC50
Please answer using a numeric value trailed by its unit.

Ask: Recall the reported IC50 of O=C(/C=C/c1ccc(O)cc1O)c1ccc(O)cc1O [THC, 2,4, 2′, 4′-tetrahydroxychalcone] on Src (Homo sapiens, UniProt P12931) and write it down.
Result: 1.44 µM
